# test_details: Stability of linkers L1-L4 conjugated to FGF21 (LC-MS)
# Type: physicochemical
# conditions: linker conjugated to FGF21ΔH-A129C, +4° C.; 168 hrs
1 linker (protein+linker conjugation): recorded values
Field format: number, assumed %, no unit text.

molecule	1 linker (protein+linker conjugation) [%]
CC1=CC(=O)N(CCC(=O)NCCOCCOCCC(=O)Nc2ccc(CCC(=O)N3CCC3=O)cc2)C1=O [Compound L2]	40
CC1=CC(=O)N(CC2CCC(C(=O)NCCOCCOCCC(=O)Nc3ccc(CCC(=O)N4CCC4=O)cc3)CC2)C1=O (stereo not shown) [Compound L4]	41
CC1=CC(=O)N(CCOCCOCCC(=O)Nc2ccc(CCC(=O)N3CCC3=O)cc2)C1=O [Compound L3]	43

The molecule listed as O=C(CCN1C(=O)C=CC1=O)NCCOCCOCCC(=O)Nc1ccc(CCC(=O)N2CCC2=O)cc1 [Compound L1] shows 1 linker (protein+linker conjugation) equal to 33
